Just for reference, patent US20220356169A1 is where these values come from.

So I've got a bunch of compounds here, and I need their viability at 72 h, 0.01 μM values.
Assay: Cell proliferation assay (MTT)
Format: cell-based
Conditions: human; 0.01 μM activator; 3 days incubation; mean ± SEM (n = 6); read-out: LS174T cell viability (%)
Description: The human colon carcinoma LS174T cell line was obtained from the American Type Culture Collection and cultured in RPMI-1640 medium supplemented with 2 mM glutamine and 10% heat inactivated fetal calf serum. Twenty-four hours prior to the experiment, the cells were plated in 96-well plates at a 5000 cells/well density. […] The % cell proliferation was assessed by an MTT assay, in comparison to cells incubated in culture medium without activator. […]

Please look at the items below and tell me viability at 72 h, 0.01 μM for each one, in order.
1. c1cc(-c2nnc(-c3ccncc3)nn2)ccn1 [2.19, 3,6-bis(4-pyridinyl)-tetrazine, reference compound]
2. Oc1cnccc1-c1nnc(-c2ccncc2O)nn1 [2.8]
3. Oc1cccnc1-c1nnc(-c2ncccc2O)nn1 [2.7]
4. O=C(CCCC(=O)Nc1cccnc1-c1nnc(-c2ncccc2NC(=O)CCCC(=O)NCCOCCOCCOCCOCCOCCOCCOCCOCCOCCO)nn1)NCCOCCOCCOCCOCCOCCOCCOCCOCCOCCO [2.14]
5. c1ccc(-c2nnc(-c3ccccn3)nn2)nc1 [2.18, 3,6-bis(2-pyridinyl)-tetrazine, reference compound]
6. O=C(CCCC(=O)Nc1cnccc1-c1nnc(-c2ccncc2NC(=O)CCCC(=O)NCCOCCOCCOCCOCCOCCOCCOCCOCCOCCO)nn1)NCCOCCOCCOCCOCCOCCOCCOCCOCCOCCO [2.16]
7. Cc1nnc(C)nn1 [2.17, 3,6-bismethyl-tetrazine, reference compound]

Result:
87%
96.9%
93.6%
107%
101%
105%
90.2%

====

assay: Activator stability in PBS at rt (UV decay at 520 nm); assay type: physicochemical; conditions: mean ± SD (n = 3)
Measured endpoint: half-life at 16.6 µM (h)
Numbers only, in h.

{"Compound": "O=C(CCCC(=O)Nc1cnccc1-c1nnc(-c2ccncc2NC(=O)CCCC(=O)NCCOCCOCCOCCOCCOCCOCCOCCOCCOCCO)nn1)NCCOCCOCCOCCOCCOCCOCCOCCOCCOCCO [2.16]", "Quantitative readout": 4.2}
{"Compound": "O=C(CCCC(=O)Nc1cccnc1-c1nnc(-c2ncccc2NC(=O)CCCC(=O)NCCOCCOCCOCCOCCOCCOCCOCCOCCOCCO)nn1)NCCOCCOCCOCCOCCOCCOCCOCCOCCOCCO [2.14]", "Quantitative readout": 8.7}
{"Compound": "Oc1cnccc1-c1nnc(-c2ccncc2O)nn1 [2.8]", "Quantitative readout": 6.5}

Now consider the entry below.
Query: State the recorded half-life at 16.6 µM for this entry: Oc1cccnc1-c1nnc(-c2ncccc2O)nn1 [2.7]
Result: 37.8

====

assay: Cell proliferation assay (MTT); type: cell-based; details: human; 1 μM activator; 3 days incubation; mean ± SEM (n = 6); read-out: LS174T cell viability (%)
Measured endpoint: viability at 72 h, 1 μM

Below, each entry is followed by its recorded viability at 72 h, 1 μM result.
{"Molecule": "c1cc(-c2nnc(-c3ccncc3)nn2)ccn1 [2.19, 3,6-bis(4-pyridinyl)-tetrazine, reference compound]", "viability at 72 h, 1 μM": "91.3%"}
{"Molecule": "Cc1nnc(C)nn1 [2.17, 3,6-bismethyl-tetrazine, reference compound]", "viability at 72 h, 1 μM": "85.7%"}
{"Molecule": "c1ccc(-c2nnc(-c3ccccn3)nn2)nc1 [2.18, 3,6-bis(2-pyridinyl)-tetrazine, reference compound]", "viability at 72 h, 1 μM": "102%"}

Query: State the recorded viability at 72 h, 1 μM for this entry: Oc1cnccc1-c1nnc(-c2ccncc2O)nn1 [2.8]
Result: 93.9%
